# tested-target: human orexin receptor 2 (Homo sapiens (Human), UniProt O43614)
# Sequence (O43614 whole entry): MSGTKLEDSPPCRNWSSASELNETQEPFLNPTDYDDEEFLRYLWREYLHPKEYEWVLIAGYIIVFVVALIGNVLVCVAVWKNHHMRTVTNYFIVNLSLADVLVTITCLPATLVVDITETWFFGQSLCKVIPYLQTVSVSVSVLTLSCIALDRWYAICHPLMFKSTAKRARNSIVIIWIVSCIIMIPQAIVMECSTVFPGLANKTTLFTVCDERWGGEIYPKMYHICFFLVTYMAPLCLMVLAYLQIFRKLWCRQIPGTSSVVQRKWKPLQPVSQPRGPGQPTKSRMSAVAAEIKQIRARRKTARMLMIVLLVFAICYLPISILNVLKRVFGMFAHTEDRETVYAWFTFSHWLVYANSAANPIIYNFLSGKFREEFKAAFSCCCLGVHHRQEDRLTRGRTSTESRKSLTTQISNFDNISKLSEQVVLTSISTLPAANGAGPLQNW
# assay-info: Orexin antagonist activity, intracellular calcium FLIPR assay (orexin receptor 2)
# measurement-parameters: RBL-2H3 cells stably expressing human orexin receptor 2; Ca2+ dye FLIPR; compound 15 minutes before orexin-A at approximately 80% maximal response; read-out: Human Orexin2R IC50
Quick reference: pIC50 of the listed items.
Entry type: numeric. Quantity: pIC50, the -log10 of concentration in molar units.

Example results:
# compound, result-type, result-value
records = [
    ("COc1cccc(OC)c1C(=O)N[C@H]1CCC[C@H]1Nc1nc2ccccc2s1", "pIC50", 6.29),
    ("CCOc1ccc(C)cc1C(=O)NC1CCCC1Cc1ccc2ccccc2n1 (stereo not shown) [Example 28]", "pIC50", 5.72),
]

Now turn to the next compound.
[in] // pIC50 lookup, key: O=C(NC1CC(F)(F)CC1Nc1nc2ccc(F)cc2s1)c1ccccc1-n1nccn1 (single isomer, unassigned) [Example 103]
[out] 6.20

----------
# tested-target: human orexin receptor 1 (Homo sapiens (Human))
# assay-info: Orexin antagonist activity, intracellular calcium FLIPR assay (orexin receptor 1)
# measurement-parameters: RBL-2H3 cells stably expressing human orexin receptor 1; Ca2+ dye FLIPR; compound 15 minutes before orexin-A at approximately 80% maximal response; read-out: Human Orexin1R IC50
result-type: pIC50
Entry type: numeric. Quantity: pIC50, the -log10 of concentration in molar units.

# compound, pIC50
records = [
    ("Cc1nnc(-c2ccccc2C(=O)N[C@H]2CCC[C@@H]2Nc2nc3ccc(F)cc3s2)o1 [Example 72]", 7.85),
    ("COc1cccc(OC)c1C(=O)N[C@H]1CCC[C@@H]1Nc1nc2ccc(F)cc2s1 [Example 3]", 8.38),
    ("O=C(N[C@H]1CCC[C@@H]1Nc1nc2ccc(F)cc2s1)c1c(F)cccc1Cl [Example 70]", 7.42),
]

[in] // pIC50 lookup, key: O=C(N[C@H]1CCCC1Nc1nc2ccc(F)cc2s1)c1ccccc1-n1nccn1 (stereo in doubt) [Example 75]
[out] 8.30

[in] // pIC50 lookup, key: O=C(N[C@H]1CCC[C@@H]1Nc1nc2ccccc2o1)c1ccccc1-n1nccn1 [Example 86]
[out] 6.82

[in] // pIC50 lookup, key: CCOC(=O)N1CC(NC(=O)c2c(OC)cccc2OC)C(Nc2nc3ccc(Cl)cc3s2)C1 (centres unmarked) [Example 23]
[out] 7.19

[in] // pIC50 lookup, key: Cc1ccc(-n2nccn2)c(C(=O)NC2CCCC2Cc2ccc3ccccc3n2)c1 (single isomer, unassigned) [Example 61]
[out] 7.46

[in] // pIC50 lookup, key: O=C(NC1CCC[C@@H]1Nc1nc2ccc(F)cc2s1)c1c(Cl)cccc1Cl (stereo in doubt) [Example 52]
[out] 6.57

----------
Quick reference: log10 IC50 of the listed items.
# tested-target: human orexin receptor 2 (Homo sapiens (Human))
# assay-info: Orexin antagonist activity, intracellular calcium FLIPR assay (orexin receptor 2)
# measurement-parameters: RBL-2H3 cells stably expressing human orexin receptor 2; Ca2+ dye FLIPR; compound 15 minutes before orexin-A at approximately 80% maximal response; read-out: Human Orexin2R IC50
Record value = log10 of IC50 given in µM.

[in] // log10 IC50 lookup, key: `Cc1ccc(-n2nccn2)c(C(=O)N[C@H]2CCC[C@@H]2Nc2ccc3ccccc3n2)c1`
[out] 0.61

[in] // log10 IC50 lookup, key: `COc1cccc(OC)c1C(=O)N[C@H]1CCC[C@H]1Nc1nc2ccccc2o1`
[out] 0.28

[in] // log10 IC50 lookup, key: `O=C(N[C@H]1CCC[C@@H]1Nc1nc2ccc(F)cc2s1)c1cc(Cl)ccc1-n1cccn1`
[out] 0.32

[in] // log10 IC50 lookup, key: O=C(N[C@H]1CCCC1Nc1nc2ccc(F)cc2s1)c1ccccc1-n1nccn1 (stereo in doubt)
[out] -0.59

[in] // log10 IC50 lookup, key: COc1cccc(OC)c1C(=O)NC1CCCC1Cc1ccc2ccccc2n1 (stereo not drawn) [Example 98]
[out] 0.32

[in] // log10 IC50 lookup, key: `COc1cccc(OC)c1C(=O)N[C@H]1CCC[C@@H]1Nc1cnc2ccccc2n1`
[out] 0.81

[in] // log10 IC50 lookup, key: `Cc1noc(-c2ccccc2C(=O)N[C@H]2CCC[C@@H]2Nc2nc3ccc(F)cc3s2)n1`
[out] 0.58

[in] // log10 IC50 lookup, key: O=C(NC1COCC1Nc1nc2ccc(F)cc2s1)c1ccccc1-n1nccn1 (single isomer, unassigned) [Example 101]
[out] 0.58

[in] // log10 IC50 lookup, key: `O=C(N[C@H]1CCC[C@@H]1Nc1nc2ccc(F)cc2s1)c1ccccc1-n1nccn1`
[out] 0.83

[in] // log10 IC50 lookup, key: `COc1cccc(OC)c1C(=O)N[C@H]1CCC[C@H]1Nc1cnc2ccccc2n1`
[out] -1.01

[in] // log10 IC50 lookup, key: `CN(C(=O)c1ccccc1-n1nccn1)[C@H]1CCC[C@@H]1Nc1nc2ccc(F)cc2s1`
[out] -0.19

[in] // log10 IC50 lookup, key: COc1cccc(OC)c1C(=O)NC1CCCC1Cc1ccc2ccccc2n1 (stereo not drawn) [Example 29]
[out] 0.46

[in] // log10 IC50 lookup, key: `CN(C(=O)c1ccccc1-n1cccn1)[C@H]1CCC[C@@H]1Nc1nc2ccc(F)cc2s1`
[out] 0.04

----------
# tested-target: human orexin receptor 2 (Homo sapiens (Human), UniProt O43614)
# assay-info: Orexin antagonist activity, intracellular calcium FLIPR assay (orexin receptor 2)
# measurement-parameters: RBL-2H3 cells stably expressing human orexin receptor 2; Ca2+ dye FLIPR; compound 15 minutes before orexin-A at approximately 80% maximal response; read-out: Human Orexin2R IC50
Quick reference: pIC50 of the listed items.
Entry type: numeric. Quantity: pIC50, the -log10 of concentration in molar units.

[in] // pIC50 lookup, key: `CCOc1ccccc1C(=O)N[C@H]1CCC[C@@H]1Nc1nc2ccc(F)cc2s1`
[out] 5.85

[in] // pIC50 lookup, key: `COc1c(F)cccc1C(=O)N[C@H]1CCC[C@@H]1Nc1nc2ccc(F)cc2s1`
[out] 5.46

[in] // pIC50 lookup, key: `O=C(N[C@H]1CCC[C@@H]1Nc1nc2cc(F)ccc2o1)c1ccccc1-n1nccn1`
[out] 5.38

----------
# tested-target: human orexin receptor 1 (Homo sapiens (Human), UniProt O43613)
# Sequence (O43613 whole entry): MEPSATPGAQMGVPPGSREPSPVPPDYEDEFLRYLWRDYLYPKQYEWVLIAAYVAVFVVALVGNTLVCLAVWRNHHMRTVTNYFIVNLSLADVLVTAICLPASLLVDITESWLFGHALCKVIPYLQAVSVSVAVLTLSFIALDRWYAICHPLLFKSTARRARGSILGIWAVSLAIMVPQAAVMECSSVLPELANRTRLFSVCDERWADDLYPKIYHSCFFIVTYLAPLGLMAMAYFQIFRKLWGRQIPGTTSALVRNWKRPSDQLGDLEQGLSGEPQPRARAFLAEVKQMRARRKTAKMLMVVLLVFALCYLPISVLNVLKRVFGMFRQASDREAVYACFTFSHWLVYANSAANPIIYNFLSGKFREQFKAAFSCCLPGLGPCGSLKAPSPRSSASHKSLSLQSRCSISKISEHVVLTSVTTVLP
# assay-info: Orexin antagonist activity, intracellular calcium FLIPR assay (orexin receptor 1)
# measurement-parameters: RBL-2H3 cells stably expressing human orexin receptor 1; Ca2+ dye FLIPR; compound 15 minutes before orexin-A at approximately 80% maximal response; read-out: Human Orexin1R IC50
# Experimental: Orexin antagonist activity was determined by measuring changes in intracellular calcium levels using a Ca^2+ sensitive fluorescent dye. […] The IC50 values were determined from ten point concentration response curves. […]
result-type: pIC50
Entry type: numeric. Quantity: pIC50, the -log10 of concentration in molar units.

Example results:
# compound, pIC50
measured = [
    ("O=C(NC1CCC[C@@H]1Nc1nc2ccncc2s1)c1ccccc1-n1nccn1 (stereo in doubt)", 6.11),
    ("O=C(NC1CC(F)(F)CC1Nc1nc2ccc(F)cc2s1)c1ccccc1-n1nccn1 (single isomer, unassigned) [Example 103]", 6.58),
    ("O=C(N[C@H]1CCC[C@@H]1Nc1nc2ccc(F)cc2s1)c1ccccc1OC(F)F", 6.33),
]

Now turn to the next compound.
[in] // pIC50 lookup, key: `O=C(N[C@H]1CCC[C@@H]1Nc1nc2ccc(F)cc2s1)c1ccccc1-n1cccn1`
[out] 8.17

----------
# tested-target: human orexin receptor 1 (Homo sapiens (Human), UniProt O43613)
# assay-info: Orexin antagonist activity, intracellular calcium FLIPR assay (orexin receptor 1)
# measurement-parameters: RBL-2H3 cells stably expressing human orexin receptor 1; Ca2+ dye FLIPR; compound 15 minutes before orexin-A at approximately 80% maximal response; read-out: Human Orexin1R IC50
result-type: IC50 (nM)
Numbers only here, please. The scale is nM.

Example results:
# compound, readout-unit, IC50
records = [
    ("CC1(Nc2nc3ccc(Cl)cc3s2)CCCC1NC(=O)c1ccccc1-n1nccn1 (stereo not shown)", "nM", 13),
    ("COc1cccc(OC)c1C(=O)NC1CN(C(=O)OCc2ccccc2)CC1Nc1nc2ccc(Cl)cc2s1 (stereo not shown)", "nM", 23),
    ("Cc1cccc(C)c1C(=O)N[C@H]1CCC[C@@H]1Nc1nc2ccc(F)cc2s1", "nM", 320),
    ("CN(C(=O)c1c(F)cccc1F)[C@H]1CCC[C@@H]1Nc1nc2ccc(F)cc2s1", "nM", 23),
]

[in] Give human orexin receptor 1 (Homo sapiens (Human), UniProt O43613) IC50 for `CCOc1cccc(OCC)c1C(=O)N[C@H]1CCC[C@H]1Nc1nc2ccccc2o1`
[out] 25

[in] Give human orexin receptor 1 (Homo sapiens (Human), UniProt O43613) IC50 for `COc1cccc(OC)c1C(=O)N[C@@H]1CCC[C@H]1Nc1nc2ccccc2s1`
[out] 360

[in] Give human orexin receptor 1 (Homo sapiens (Human), UniProt O43613) IC50 for `COc1cccc(OC)c1C(=O)N[C@H]1CCC[C@@H]1Nc1nc2cc(F)ccc2o1`
[out] 23

[in] Give human orexin receptor 1 (Homo sapiens (Human), UniProt O43613) IC50 for `O=C(N[C@H]1CCC[C@@H]1Nc1nc2ccc(F)cc2s1)c1ccccc1F`
[out] 160

Provenance of the data: patent US9493432B2
